# Assay name: gradient 5% acetonitrile 3 min, to 50% in 2 min, to 85% in 15 min, held 3 min, 100 µL/min
# Condition info: column: Zorbax Extend-C18 2.1 x 50 mm; eluents: water / acetonitrile, 0.1% formic acid
Give RP-LC retention time for every item shown.
One number for each entry, in s.

Example entries and their recorded answers appear below.
>>> number("CCN(CC)Cc1ccc2c(c1)CN(C(=O)NC1CCCC1)CCO2")
558
>>> number("O=C(NC1(c2nc(-c3ccncc3)no2)CCCCC1)c1ccccn1")
885

Input line: Please list RP-LC retention time recorded for the compound COc1ccc(CC(=O)N2CCC3(C2)C(=O)N(C)c2ccccc23)cc1 (stereo not drawn)
Output line: 782
